# TESTED TARGET: Neuronal acetylcholine receptor; alpha4/beta2 (Homo sapiens, UniProt P17787+P43681)
# Sequence (P17787 whole entry): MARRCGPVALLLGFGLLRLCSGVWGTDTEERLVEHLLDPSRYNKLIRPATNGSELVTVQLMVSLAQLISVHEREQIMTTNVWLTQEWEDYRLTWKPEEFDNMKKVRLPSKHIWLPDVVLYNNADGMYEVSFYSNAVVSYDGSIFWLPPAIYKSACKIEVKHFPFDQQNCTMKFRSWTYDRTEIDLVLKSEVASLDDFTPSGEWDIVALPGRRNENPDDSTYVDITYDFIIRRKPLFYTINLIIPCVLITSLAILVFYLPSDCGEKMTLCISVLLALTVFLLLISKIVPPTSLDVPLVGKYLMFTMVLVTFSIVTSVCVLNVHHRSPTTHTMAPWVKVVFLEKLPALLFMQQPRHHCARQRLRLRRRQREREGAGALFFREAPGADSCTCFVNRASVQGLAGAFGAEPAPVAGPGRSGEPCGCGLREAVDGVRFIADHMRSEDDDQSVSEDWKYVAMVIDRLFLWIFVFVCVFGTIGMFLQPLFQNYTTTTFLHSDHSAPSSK
# Sequence (P43681 whole entry): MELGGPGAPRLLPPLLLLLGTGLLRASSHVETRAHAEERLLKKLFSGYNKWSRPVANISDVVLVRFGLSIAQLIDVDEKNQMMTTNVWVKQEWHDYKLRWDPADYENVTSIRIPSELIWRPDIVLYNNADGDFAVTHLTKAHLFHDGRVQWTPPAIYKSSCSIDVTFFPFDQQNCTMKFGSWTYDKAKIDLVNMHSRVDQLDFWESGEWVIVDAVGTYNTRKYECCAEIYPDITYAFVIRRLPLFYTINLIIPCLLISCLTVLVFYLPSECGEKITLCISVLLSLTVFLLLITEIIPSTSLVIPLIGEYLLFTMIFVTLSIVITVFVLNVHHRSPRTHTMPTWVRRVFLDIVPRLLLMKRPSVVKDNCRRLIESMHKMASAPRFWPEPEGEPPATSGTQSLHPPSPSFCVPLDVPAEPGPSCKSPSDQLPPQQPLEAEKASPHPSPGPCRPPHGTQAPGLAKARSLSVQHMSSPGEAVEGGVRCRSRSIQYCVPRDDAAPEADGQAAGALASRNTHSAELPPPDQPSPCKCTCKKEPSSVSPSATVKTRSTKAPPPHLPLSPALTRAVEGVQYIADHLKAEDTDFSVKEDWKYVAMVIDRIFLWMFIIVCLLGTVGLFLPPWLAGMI
# ASSAY NAME: Agonist activity at human alpha4beta2 nACHR expressed in xenopus oocyte assessed as potentiation of acetylcholine-induced current by two electrode voltage clamp assay
# Assay type: functional
# CONDITIONS USED: read-out: EC50
Counter-ions that a name gives are not always drawn.
TEST READOUT: pEC50
Worth noting: pEC50 values are minus log10 of concentrations stated in mol/L.

GET /values?readout=pEC50&system=Neuronal acetylcholine receptor; alpha4/beta2 (Homo sapiens, UniProt P17787+P43681)&item= CCC(C)(C)c1[nH]c2cc(Br)ccc2c1CCNC 7.00

Try CCC(C)(C)c1[nH]c2ccccc2c1CCNC next. 5.91

Try C=CC(C)(C)c1[nH]c2ccccc2c1CCNC next. 5.17

Read the next record carefully.
GET /values?readout=pEC50&system=Neuronal acetylcholine receptor; alpha4/beta2 (Homo sapiens, UniProt P17787+P43681)&item= C=CC(C)(C)c1[nH]c2cc(Br)ccc2c1CCNC [DESFORMYLFLUSTRABROMINE HYDROCHLORIDE] 6.49
